System: rice
protocolDetails: Test B pre-/postemergence herbicide test
Type: in vivo, Oryza sativa
conditionSummary: 500 g ai/ha; visual rating 0-100, 0 no effect, 100 complete control; preemergence
The threshold is inclusive: Plant response rating, Rice of exactly 60 counts as Met; values below receive Not met.

{"mol": "CCn1nc(C(C)(C)C)cc1C(=O)Nc1cccc(C(=O)OCC2CC2)c1C", "labelValue": "Not met"}
{"mol": "Cc1nc(C(C)(C)C)sc1C(=O)Nc1cccc(C(=O)NCCF)c1", "labelValue": "Not met"}
{"mol": "CCn1nc(C(C)(C)C)cc1C(=O)Nc1cccc(C(=O)NC2CC2)n1", "labelValue": "Not met"}

Attention now turns to another entry.
Q. Does the reported Plant response rating, Rice for `CCn1nc(C(C)(C)C)cc1C(=O)Nc1cc(C#N)ccc1F` fall at or above the 60 mark?
A. Met

* * *

System: blackgrass
protocolDetails: Test B postemergence herbicide test
Type: in vivo, Alopecurus myosuroides
conditionSummary: postemergence, 500 g ai/ha; visual rating, scale 0 (no effect) to 100 (complete control)
reportedEndpoint: Blackgrass plant response rating
// print number alone

// worked examples, Blackgrass plant response rating included
{"compound": "CCCc1nn(C(C)(C)C)cc1C(=O)Nc1cccc(C(=O)N(CC)CC)c1 [Compound 185]", "result": 0}
{"compound": "C#CCNC(=O)c1cncc(NC(=O)c2cc(C(C)(C)C)nn2CC)c1 [Compound 264]", "result": 20}
{"compound": "Cc1nc(C(C)(C)C)sc1C(=O)Nc1cccc(C(=O)NCC(F)(F)F)c1 [Compound 201]", "result": 0}
{"compound": "CCc1cn(C(C)(C)C)nc1C(=O)Nc1cc(C(=O)N(C)C)ccn1 [Compound 232]", "result": 0}

Q. May I ask what Blackgrass plant response rating has been recorded for CC(=NO)c1ccnc(NC(=O)c2cc(C(C)(C)C)nn2C)n1 [Compound 164] ?
A. 0

* * *

System: velvetleaf
protocolDetails: Test C pre-/postemergence herbicide test
Type: in vivo, Abutilon theophrasti
conditionSummary: 62 g ai/ha; preemergence; scale 0 to 100
reportedEndpoint: Plant response rating, Velvetleaf
Give the figure only, with no unit attached.

Known results for molecules:
{"molecule": "CCn1nc(C(C)(C)C)cc1C(=O)Nc1cc(C(=O)N2CCCC2)ccc1F [Compound 242]", "Plant response rating, Velvetleaf": 100}
{"molecule": "CCc1nn(C(C)(C)CC)nc1C(=O)Nc1cccc(C(=O)N(C)C)c1 [Compound 372]", "Plant response rating, Velvetleaf": 50}
{"molecule": "CCN1N=C(C(C)(C)C)CC1C(=O)Nc1cc(C(=O)N2CCCC2)ccc1F (racemic) [Compound 309]", "Plant response rating, Velvetleaf": 5}

We now examine a further molecule.
Q. Suppose we examine the molecule C=CCNC(=O)c1cccc(NC(=O)c2sc(C(C)(C)C)nc2C)c1 [Compound 202] ; what Plant response rating, Velvetleaf value has been reported?
A. 5

* * *

Tested on: blackgrass
protocolDetails: Test B postemergence herbicide test
Type: in vivo, Alopecurus myosuroides
conditionSummary: postemergence, 125 g ai/ha; visual rating, scale 0 (no effect) to 100 (complete control)
Quick reference: Blackgrass plant response rating of the listed items.
Form: value (number only, do not type unit).

Some compounds with known Blackgrass plant response rating results, for comparison:
{"mol": "C=Cn1nc(C(C)(C)C)cc1C(=O)Nc1cccc(C(=O)OCC)c1", "reportedEndpoint": "Blackgrass plant response rating", "result": 20}
{"mol": "C#CCNC(=O)c1cccc(NC(=O)c2sc(C(C)(C)C)nc2C)c1", "reportedEndpoint": "Blackgrass plant response rating", "result": 0}
{"mol": "CCn1nc(C(C)(C)C)cc1C(=O)Nc1cccc(C(=O)OC)c1C", "reportedEndpoint": "Blackgrass plant response rating", "result": 0}
{"mol": "CCn1nc(C(C)(C)C)cc1C(=O)Nc1cc(C(N)=O)ccc1F", "reportedEndpoint": "Blackgrass plant response rating", "result": 10}
{"mol": "CCn1nc(C(C)(C)C)cc1C(=O)Nc1cccc(C(=O)OC(C)C)c1C", "reportedEndpoint": "Blackgrass plant response rating", "result": 0}
{"mol": "CCn1nc(C(C)(C)C)cc1C(=O)Nc1cc(C(=O)N2CCOCC2)ccc1F", "reportedEndpoint": "Blackgrass plant response rating", "result": 0}

Q. Any idea what its Blackgrass plant response rating is? The compound is `CCn1nc(C(C)(C)C)cc1C(=O)Nc1cccc(C(C)=NO)c1`
A. 0

Q. Give its Blackgrass plant response rating value. Item: `CCn1nc(C(C)(C)C)cc1C(=O)Nc1nc(C(=O)OC)ccc1OC`
A. 0

Q. State the recorded Blackgrass plant response rating for this entry: `CCc1nc(C(C)(C)C)sc1C(=O)Nc1cccc(C(=O)NCC2CC2)n1`
A. 0

Q. Given the compound `CCn1nc(C(C)(C)C)cc1C(=O)Nc1cc(C(=O)N2CCCC2)ccc1F` , what is its reported Blackgrass plant response rating?
A. 10

Q. What value of Blackgrass plant response rating has been reported for the following compound? `CCc1cn(C(C)(C)C)nc1C(=O)Nc1cc(C(=O)N(C)C)ccn1`
A. 0

* * *

System: large crabgrass
protocolDetails: Test B pre-/postemergence herbicide test
Type: in vivo, Digitaria sanguinalis
conditionSummary: 125 g ai/ha; 0 = no effect, 100 = complete control; preemergence
Collected Crabgrass, Large plant response rating (0 to 100 scale) values appear next to each entry.
Lab note: record just the number, no unit beside it.

Q. Data request, read-out Crabgrass, Large plant response rating (0 to 100 scale), for `CCOC(=O)c1ccc(F)c(NC(=O)c2cc(C3(C)CC3)nn2CC)c1`
A. 40

Q. Quick check: Crabgrass, Large plant response rating (0 to 100 scale) of `C#CCNC(=O)c1cncc(NC(=O)c2cc(C(C)(C)C)nn2CC)c1` ?
A. 10

Q. Form field: reported Crabgrass, Large plant response rating (0 to 100 scale) of `CCCc1nn(C(C)(C)C)cc1C(=O)Nc1cccc(C(=O)N(CC)CC)c1`
A. 0

Q. Fill in the blank: the reported Crabgrass, Large plant response rating (0 to 100 scale) of `CCc1cn(C(C)(C)C)nc1C(=O)Nc1cc(C(=O)N(C)C)ccn1` is ____.
A. 60

* * *

System: giant foxtail
protocolDetails: Test B pre-/postemergence herbicide test
Type: in vivo, Setaria faberi
conditionSummary: postemergence, 500 g ai/ha; visual rating, scale 0 (no effect) to 100 (complete control)
// reported Foxtail, Giant plant response rating per item
Please give the numeric answer without any surrounding text.

Some solved entries appear below for comparison.
{"compound": "CCCc1nn(C(C)(C)C)cc1C(=O)Nc1cccc(C(=O)N(CC)CC)c1 [Compound 185]", "Foxtail, Giant plant response rating": 30}
{"compound": "CCn1nc(C(C)(C)C)cc1C(=O)Nc1cccc(C(=O)N(C)CC#N)n1 [Compound 158]", "Foxtail, Giant plant response rating": 30}

Q. Could you share which Foxtail, Giant plant response rating value was measured for C#CCN(C)C(=O)c1ccnc(NC(=O)c2cc(C(C)(C)C)nn2CC)c1 [Compound 160] ?
A. 30

Q. # query: Foxtail, Giant plant response rating of entry CCc1cn(C(C)(C)C)nc1C(=O)Nc1cc(C(=O)N(C)CC)ccn1 [Compound 235]
A. 30

* * *

Tested on: ducksalad
protocolDetails: Test B flooded paddy test
Assay type: in vivo, Heteranthera limosa
conditionSummary: 1000 g ai/ha, visual rating, scale 0 to 100 (0 no effect, 100 complete control), 13 to 15 days
Listed next: entries and their corresponding Ducksalad plant response rating.

The examples below pair each entry with its known result.
{"mol": "CCNC(=O)c1ccnc(NC(=O)c2cc(C(C)(C)C)nn2CC)c1", "Ducksalad plant response rating": 80}
{"mol": "CCn1nc(C(C)(C)C)cc1C(=O)Nc1cccc(C(=O)OC)c1", "Ducksalad plant response rating": 80}
{"mol": "CCn1nc(C(C)(C)C)cc1C(=O)Nc1cccc(C(=O)NOC)c1", "Ducksalad plant response rating": 80}
{"mol": "CCc1nc(C(C)(C)C)sc1C(=O)Nc1cccc(C(=O)NCC2CC2)n1", "Ducksalad plant response rating": 90}
{"mol": "CCOC(=O)c1ccc(F)c(NC(=O)c2cc(CC(C)C)nn2CC)c1", "Ducksalad plant response rating": 0}
{"mol": "CCn1nc(C(C)(C)C)cc1C(=O)Nc1cccc(C(=O)N(C)CC#N)n1", "Ducksalad plant response rating": 90}

Next item in the queue.
Q. Please state recorded Ducksalad plant response rating (tested on ducksalad) of `C=CCNC(=O)c1cccc(NC(=O)c2sc(C(C)(C)C)nc2C)c1`
A. 60

* * *

Test system: blackgrass
protocolDetails: Test B postemergence herbicide test
Type: in vivo, Alopecurus myosuroides
conditionSummary: postemergence, 500 g ai/ha; scale 0 to 100, 0 is no effect, 100 is complete control
Below is a list of entries, each paired with its recorded Blackgrass plant response rating value.
No unit in the answer, please; the number alone is enough.

{"compound": "CCc1nn(C(C)(C)C)nc1C(=O)Nc1cc(C(=O)N2CCCCC2)ccc1F", "Blackgrass plant response rating": 30}
{"compound": "CCC1=NN(C(C)(C)C)CC1C(=O)Nc1cc(C(=O)N(C)CC)ccc1F (racemic)", "Blackgrass plant response rating": 30}

# context switch: different compound, same Blackgrass plant response rating
Q. Recorded Blackgrass plant response rating for `C#CCNC(=O)c1cccc(NC(=O)c2nn(C(C)(C)C)nc2CC)c1` , please?
A. 40
